Numbers sourced from paper PMC9482650.

biological target: SCRIB_1, Q14160; assay: holdup assay; design: key: below the threshold = too weak to quantify, mostly under pKd 3.1 to 4; details: plain residues with an end cap or a label only (N-terminal biotin on a linker: ado-ado)
Sequence (Q14160 718-814): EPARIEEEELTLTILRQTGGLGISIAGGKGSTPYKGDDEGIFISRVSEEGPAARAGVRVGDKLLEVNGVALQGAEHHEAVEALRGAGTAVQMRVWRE
Metric Name: pKd
# respond with the number and nothing more

GQEEQVTTRL [TRPC5, Q9UL62] = 3.79

In the following, a different binder is considered.
State, in one line, measured pKd of SSALYGESDL [ACTN2, P35609] 4.23
